# Test system: 485176-168-R4-J1-PDC complex spheroid growth;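 also: spheroids exposed to compounds for seven days before readout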
# procedure_summary: Anticancer human tumor 485176-168-R4-J1-PDC patient-derived pancreatic adenocarcinoma cell line growth inhibition [RAS]
# experimental_parameters: second compound 0.03 µM; first compound 10 µM; hits give low values
Mark Condition met for viability, T/C under 70%, Condition not met if at or over.

Some entries whose results are on file:
Quick check: does NC1c2ccccc2OC12CCN(c1cnc3c(N4CCCc5ncccc54)n[nH]c3n1)CC2 (stereo not drawn) + CCn1c(-c2cc(N3CCN(C)CC3)cnc2C(C)OC)c2c3cc(ccc31)-c1csc(n1)CC(NC(=O)C1CC1C)C(=O)N1CCCC(N1)C(=O)OCC(C)(C)C2 have viability, T/C under 70%? Condition not met

Further, for CC(C)NCC(C(=O)N1CCN(c2ncnc3c2C(C)CC3O)CC1)c1ccc(Cl)cc1 (stereo not drawn) + CCn1c(-c2cccnc2C(C)OC)c2c3cc(ccc31)N1CCOC(CC(NC(=O)C(C(C)C)N(C)C(=O)C3(F)CCN(C(=O)C#CC(C)(C)N(C)C)CC3)C(=O)N3CCCC(N3)C(=O)OCC(C)(C)C2)C1 ? Condition met

Continue with CC1(O)CCCC1n1c(=O)c(C(F)F)cc2cnc(NC3CCN(S(C)(=O)=O)CC3)nc21 (stereo not drawn) + CCn1c(-c2cccnc2C(C)OC)c2c3cc(ccc31)N1CCOC(CC(NC(=O)C(C(C)C)N(C)C(=O)C3(F)CCN(C(=O)C#CC(C)(C)N(C)C)CC3)C(=O)N3CCCC(N3)C(=O)OCC(C)(C)C2)C1 Condition met

Now give it for Cc1nc(N2CCC3(CC2)COC(C)C3N)c(CO)nc1Sc1ccnc(N)c1Cl (stereo not drawn) + CCn1c(-c2cccnc2C(C)OC)c2c3cc(ccc31)N1CCOC(CC(NC(=O)C(C(C)C)N(C)C(=O)C3(F)CCN(C(=O)C#CC(C)(C)N(C)C)CC3)C(=O)N3CCCC(N3)C(=O)OCC(C)(C)C2)C1 too. Condition not met

Another molecule to look at: C[C@@H](NC(=O)c1ncnc(N)c1Cl)c1ncc(C(=O)Nc2cc(C(F)(F)F)c(Cl)cn2)s1 + CCn1c(-c2cc(N3CCN(C)CC3)cnc2C(C)OC)c2c3cc(ccc31)-c1csc(n1)CC(NC(=O)C1CC1C)C(=O)N1CCCC(N1)C(=O)OCC(C)(C)C2 Condition met

Next:
Check if viability, T/C falls below 70% for C[C@@H](NC(=O)c1ncnc(N)c1Cl)c1ncc(C(=O)Nc2cc(C(F)(F)F)c(Cl)cn2)s1 + CCn1c(-c2cccnc2C(C)OC)c2c3cc(ccc31)N1CCOC(CC(NC(=O)C(C(C)C)N(C)C(=O)C3(F)CCN(C(=O)C#CC(C)(C)N(C)C)CC3)C(=O)N3CCCC(N3)C(=O)OCC(C)(C)C2)C1 . Condition not met

Moving on to CC(=O)OC12COC1CC(O)C1(C)C(=O)C(O)C3=C(C)C(OC(=O)C(O)C(NC(=O)OC(C)(C)C)c4ccccc4)CC(O)(C(OC(=O)c4ccccc4)C21)C3(C)C (stereo not drawn) + CCn1c(-c2cc(N3CCN(C)CC3)cnc2C(C)OC)c2c3cc(ccc31)-c1csc(n1)CC(NC(=O)C1CC1C)C(=O)N1CCCC(N1)C(=O)OCC(C)(C)C2 Condition met

# iterate: NC1c2ccccc2OC12CCN(c1cnc3c(N4CCCc5ncccc54)n[nH]c3n1)CC2 (stereo not drawn) + CCn1c(-c2cccnc2C(C)OC)c2c3cc(ccc31)N1CCOC(CC(NC(=O)C(C(C)C)N(C)C(=O)C3(F)CCN(C(=O)C#CC(C)(C)N(C)C)CC3)C(=O)N3CCCC(N3)C(=O)OCC(C)(C)C2)C1 Condition met

These entries and their values trace back to PubChem BioAssay AID2060906.
